STUDY SYSTEM: human GLUT1 (Homo sapiens)
Construct: expressed in transfected cells
Sequence (P11166 whole entry): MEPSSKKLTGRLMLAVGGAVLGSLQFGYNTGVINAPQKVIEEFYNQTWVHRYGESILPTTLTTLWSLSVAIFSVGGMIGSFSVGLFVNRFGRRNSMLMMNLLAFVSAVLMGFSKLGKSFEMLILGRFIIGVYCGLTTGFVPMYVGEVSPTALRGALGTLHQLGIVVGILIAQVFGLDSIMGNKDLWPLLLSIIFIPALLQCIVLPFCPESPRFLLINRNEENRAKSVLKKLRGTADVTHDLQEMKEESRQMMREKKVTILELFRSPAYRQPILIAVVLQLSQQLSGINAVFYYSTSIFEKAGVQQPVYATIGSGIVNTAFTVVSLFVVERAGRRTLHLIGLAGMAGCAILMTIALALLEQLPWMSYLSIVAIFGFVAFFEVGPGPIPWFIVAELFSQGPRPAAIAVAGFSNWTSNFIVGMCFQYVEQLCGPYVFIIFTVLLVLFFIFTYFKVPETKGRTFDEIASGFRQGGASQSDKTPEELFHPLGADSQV
TEST PROTOCOL: [3H]-deoxy-D-glucose uptake assay, GLUT1
Type: cell-based
ASSAY CONTEXT: [3H]-deoxy-D-glucose uptake in HEK293 cells stably expressing human GLUT1
QUANTITY KIND: GLUT1 pIC50

Answered examples (4):
Request the reported GLUT1 pIC50 associated with CC(=O)N1CCN(Cc2c(-c3ccc(Cl)cc3Cl)nc3ccc(N(C)S(C)(=O)=O)cn23)CC1 +++ (pIC50 ≧ 6.00)

Note, next up: CN(c1ccc2nc(-c3ccc(Cl)cc3Cl)c(CN3CCN(C(=O)c4ccnnc4)CC3)n2c1)S(C)(=O)=O +++ (pIC50 ≧ 6.00)

Note, next up: O=C(Cc1ccc(F)cc1)N1CCN(Cc2c(-c3ccc(Cl)cc3)nc3ccc(-c4ccccc4)cn23)CC1 ++ (pIC50 5.00-5.99)

Note, next up: CN(c1ccc2nc(-c3ccc(Cl)cc3)c(CN3CCNCC3)n2c1)S(C)(=O)=O ++ (pIC50 5.00-5.99)

# context switch: different compound, same GLUT1 pIC50
Request the reported GLUT1 pIC50 associated with O=C(c1cccnc1)N1CCN(Cc2c(-c3ccc(Cl)cc3)nc3ccc(-c4ccccc4)cn23)CC1 +++ (pIC50 ≧ 6.00)

Values were extracted from patent US20160120863A1.
